Data provenance is patent US11021448B2.

Let's look at some molecules and their measured IC50.
TARGET_UNDER_TEST: hM1 (Homo sapiens, UniProt P11229)
Construct: expressed in transfected cells; host or cells: CHO
Sequence (P11229 whole entry): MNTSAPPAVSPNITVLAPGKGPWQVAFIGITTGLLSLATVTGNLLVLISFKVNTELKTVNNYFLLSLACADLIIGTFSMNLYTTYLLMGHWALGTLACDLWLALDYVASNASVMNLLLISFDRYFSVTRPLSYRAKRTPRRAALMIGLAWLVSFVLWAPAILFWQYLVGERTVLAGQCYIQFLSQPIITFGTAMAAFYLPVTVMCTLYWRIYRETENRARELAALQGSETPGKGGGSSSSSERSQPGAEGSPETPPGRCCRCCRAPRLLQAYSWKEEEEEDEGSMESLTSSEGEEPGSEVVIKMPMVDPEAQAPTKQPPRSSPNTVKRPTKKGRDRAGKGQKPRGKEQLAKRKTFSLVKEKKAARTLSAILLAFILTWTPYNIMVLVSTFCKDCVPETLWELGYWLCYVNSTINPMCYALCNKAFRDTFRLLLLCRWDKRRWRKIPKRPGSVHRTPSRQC
METHOD_DESCRIPTION: FLIPR intracellular calcium assay for modulator activity at the muscarinic M1 receptor in CHO human M1 cells
Type: cell-based
Number in µM, nothing else.

Past entries and their recorded results:
{"columns": ["MOLECULE", "MEASURE_UNIT", "OBSERVED_RESULT"],
 "data": [
  ["CC(C)[C@@H]1N=C(c2ccccc2)c2cc(OC(F)(F)F)ccc2NC1=S [Example 25]", "µM", 0.232],
  ["Cc1ccc2c(c1)C(c1ccccc1F)=N[C@@H](C(C)C)C(=S)N2 [Example 13]", "µM", 0.062],
  ["FC(F)(F)C[C@@H]1N=C(c2ccccc2)c2cc(Cl)ccc2NC1=S [Example 8]", "µM", 0.238]
]}

Here is the next item to consider.
*Q* Given the entry CC(C)[C@@H]1N=C(c2ccccc2F)c2ccc(Cl)cc2NC1=S [Example 23] , what IC50 was observed with hM1 (Homo sapiens, UniProt P11229)?
*A* 0.399
